Data provenance is patent US8877757B2.

# target-entity: Human recombinant GST-PI3δ (Homo sapiens (Human))
# Sequence (O00329 whole entry): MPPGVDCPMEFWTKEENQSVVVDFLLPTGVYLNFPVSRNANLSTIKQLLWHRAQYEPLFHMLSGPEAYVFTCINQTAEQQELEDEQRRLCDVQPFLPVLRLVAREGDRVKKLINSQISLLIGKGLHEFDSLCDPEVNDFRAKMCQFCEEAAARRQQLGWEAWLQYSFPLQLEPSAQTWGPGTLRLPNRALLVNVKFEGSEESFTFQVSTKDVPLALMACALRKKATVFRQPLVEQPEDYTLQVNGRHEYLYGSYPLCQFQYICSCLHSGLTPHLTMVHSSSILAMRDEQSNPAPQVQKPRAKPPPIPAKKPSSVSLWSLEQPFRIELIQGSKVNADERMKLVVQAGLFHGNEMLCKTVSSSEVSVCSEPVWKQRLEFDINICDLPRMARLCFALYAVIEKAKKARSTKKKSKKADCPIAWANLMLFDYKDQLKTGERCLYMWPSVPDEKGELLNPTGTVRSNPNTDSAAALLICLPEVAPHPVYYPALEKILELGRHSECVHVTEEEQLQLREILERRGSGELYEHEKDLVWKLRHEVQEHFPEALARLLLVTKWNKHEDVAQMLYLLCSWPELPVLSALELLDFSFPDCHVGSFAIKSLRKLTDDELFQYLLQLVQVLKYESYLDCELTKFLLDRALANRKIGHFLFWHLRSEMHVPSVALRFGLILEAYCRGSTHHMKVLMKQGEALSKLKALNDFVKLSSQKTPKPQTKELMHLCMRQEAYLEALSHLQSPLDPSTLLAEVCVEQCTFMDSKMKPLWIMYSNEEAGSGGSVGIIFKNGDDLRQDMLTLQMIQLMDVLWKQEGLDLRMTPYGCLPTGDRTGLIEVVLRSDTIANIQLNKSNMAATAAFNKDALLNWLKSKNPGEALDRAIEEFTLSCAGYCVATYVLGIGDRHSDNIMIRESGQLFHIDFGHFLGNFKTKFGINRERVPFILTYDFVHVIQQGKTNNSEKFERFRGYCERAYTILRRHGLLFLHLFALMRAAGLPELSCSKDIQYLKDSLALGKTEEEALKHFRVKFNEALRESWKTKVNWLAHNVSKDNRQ
# protocol-description: PI3K induced-lipid phosphorylation scintillation proximity assay (neomycin-coated SPA beads)
reported-metric: pIC50
Scale: pIC50 equals -log10([C]), with [C] in mol/L.

Example compounds with recorded pIC50:
[[record]]
given_smiles = "COc1ccc(OC)c(Nc2nc3ccccc3nc2NS(=O)(=O)c2cn(C)cn2)c1"
numeric_value = 7.10

[[record]]
given_smiles = "COc1ccc(OC)c(Nc2nc3ncccc3nc2NS(=O)(=O)c2ccccc2)c1"
numeric_value = 7.14

[[record]]
given_smiles = "COc1cc(Nc2nc3ccccc3nc2NS(=O)(=O)c2cccc(C(=O)NCCCN(C)C)c2)cc(OC)c1"
numeric_value = 7.52


Then this compound:
# input pIC50 for "COc1ccc(OC)c(Nc2nc3ccccc3nc2NS(=O)(=O)c2cccc(C#N)c2)c1" ?
# output 6.37

----------
pIC50 reference
# target-entity: Human recombinant GST-PI3δ (Homo sapiens (Human))
# protocol-description: PI3K induced-lipid phosphorylation scintillation proximity assay (neomycin-coated SPA beads)
Scale: pIC50 equals -log10([C]), with [C] in mol/L.

Example compounds with recorded pIC50:
[[record]]
given_smiles = "COc1ccc(OC)c(Nc2nc3ccccc3nc2NS(=O)(=O)c2cccnc2)c1"
numeric_value = 7.25

[[record]]
given_smiles = "COc1ccc(OC)c(Nc2nc3ccccc3nc2NS(=O)(=O)c2ccc3c(c2)sc(=O)n3C)c1"
numeric_value = 6.62


# input pIC50 for "COc1cc(Nc2nc3ccccc3nc2NS(=O)(=O)c2ccc(CN(C)C)cc2)cc(OC)c1" ?
# output 7.57
